- Test system: Plasmodium berghei
- method summary: Luciferase/luciferin-expressing antifolate-resistant parasites were used to infect a culture of HepG2 cells that were pre-incubated with compounds. Infected hepatocytes emit light due to the luciferase reaction. Assay results are presented as the percent inhibition of light emission compared to control. […]
- Format: functional
- conditions used: sporozoite, PBLUC_HILL_SLOPE 0.836, PBLUC_R_SQUARED 0.347, read-out: LUCIFERASE INFECTION ASSAY - IC50
experimental readout: pIC50
Answer as the number alone; pIC50 is minus log10 of concentration in mol/L.

Input: May I ask what pIC50 has been recorded for `Cc1ccc(S(=O)(=O)Oc2cc(C)ccc2C)cc1` ?
Output: 5.37

Attribution: ChEMBL document CHEMBL4483862
